- procedure_text: qHTS assay to identify small molecule antagonists of the sonic hedgehog signaling (Shh) pathway - cell viability counter screen (AID 1259367); note: nearly all actives have a fitted effect of over 55% in size
- settings: NIH/3T3 Gli1-Luc viability, CellTiter-Fluor, 24 h; series mostly up to 92.4 µM
Results filed as inconclusive are left out. The source made the active and inactive calls. Calls come from the whole dose curve; as a rule, active = well fitted cell-killing curve with a large enough effect in the repeat runs; inconclusive = weak or mixed curves, or effect the other way; inactive = no such curve, though single readings can be large or run the other way.
Please answer using one outcome listed in T = active, F = inactive

How was CN(C)CCN1CCOCC1 classified in this test? F

How was O=C(c1ccccc1)c1cc(Cl)ccc1O classified in this test? F

How was CCO[Si](C)(C)OCC classified in this test? F

How was Cn1cccc1 classified in this test? F

How was CCCCCCOc1cc(C)c(O)c(C)c1C classified in this test? T
